# Tested on: UniProt P11712
# Sequence (P11712 whole entry): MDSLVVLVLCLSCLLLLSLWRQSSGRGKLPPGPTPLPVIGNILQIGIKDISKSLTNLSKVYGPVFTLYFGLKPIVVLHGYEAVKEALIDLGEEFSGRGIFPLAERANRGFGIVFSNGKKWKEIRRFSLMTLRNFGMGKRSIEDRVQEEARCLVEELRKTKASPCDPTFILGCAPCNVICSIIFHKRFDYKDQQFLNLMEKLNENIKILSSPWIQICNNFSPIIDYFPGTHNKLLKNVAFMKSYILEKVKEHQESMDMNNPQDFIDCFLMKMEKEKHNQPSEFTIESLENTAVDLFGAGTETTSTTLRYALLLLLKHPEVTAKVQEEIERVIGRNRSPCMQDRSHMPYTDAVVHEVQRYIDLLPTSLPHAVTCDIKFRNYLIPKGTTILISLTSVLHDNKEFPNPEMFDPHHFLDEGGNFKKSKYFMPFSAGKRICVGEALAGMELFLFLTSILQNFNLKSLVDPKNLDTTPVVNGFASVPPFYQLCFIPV
# Condition context: read-out: IC50 CYP2C9; recombinant human CYP2C9 15 nM, 150 μM MFC, 45 min, 37°C; mean (95% confidence interval)
Here, each record is paired with measured IC50 data.
State the answer as a number, implicitly in nM.

O=C1C[C@@H](c2ccc(O)cc2)Oc2cc(O)cc(O)c21 [(S)-naringenin]; 3400

Can you look up the measured IC50 of O=C1C[C@H](c2ccc(O)cc2)Oc2cc(O)cc(O)c21 [(R)-naringenin] for me?
1600

###

Here, each record is paired with measured pIC50 data.
# Tested on: human CYP2C19 (Homo sapiens, UniProt P33261)
# Sequence (P33261 whole entry): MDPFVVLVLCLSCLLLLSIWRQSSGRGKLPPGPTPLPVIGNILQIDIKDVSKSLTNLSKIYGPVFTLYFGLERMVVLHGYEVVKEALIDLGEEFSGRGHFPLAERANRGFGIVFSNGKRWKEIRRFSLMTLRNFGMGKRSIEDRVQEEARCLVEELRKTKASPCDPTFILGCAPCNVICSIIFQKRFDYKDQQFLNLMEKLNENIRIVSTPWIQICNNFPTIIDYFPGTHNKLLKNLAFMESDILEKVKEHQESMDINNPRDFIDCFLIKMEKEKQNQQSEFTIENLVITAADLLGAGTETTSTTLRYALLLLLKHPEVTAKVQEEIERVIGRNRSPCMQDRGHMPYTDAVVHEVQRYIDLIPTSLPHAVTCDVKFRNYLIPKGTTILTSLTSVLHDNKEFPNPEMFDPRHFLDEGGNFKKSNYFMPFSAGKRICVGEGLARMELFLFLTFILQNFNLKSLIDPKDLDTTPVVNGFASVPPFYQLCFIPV
# Condition context: read-out: IC50 CYP2C19; recombinant human CYP2C19 7.5 nM, 25 μM CEC, 30 min, 37°C; mean (95% confidence interval)
Friendly reminder that pIC50 comes from taking -log10 of the concentration in mol/L.

O=C1C[C@@H](c2ccc(O)cc2)Oc2cc(O)cc(O)c21 [(S)-naringenin]; 5.92

Shift focus to the following entry.
Fill in the recorded pIC50 for this molecule, with human CYP2C19 (Homo sapiens, UniProt P33261) as test system: O=C1C[C@H](c2ccc(O)cc2)Oc2cc(O)cc(O)c21 [(R)-naringenin]
5.31
